test summary: Pharmacokinetic evaluation following a single oral and intravenous administration
Format: in vivo, CD1 mouse
test parameters: CD1, mouse, plasma, po, 5 mg/kg, Table 12, PO Dose: 5 mg/kg, mean; read-out: AUCInf, Mean
measurement kind: AUC(0-inf) (ng·h/mL)
Write the number in ng·h/mL without appending the unit.

Return AUC(0-inf) for the following compound: CC(=O)N[C@@H](Cc1ccc(CN(C)C)cc1)c1nnc(-c2cccc(OC(F)(F)F)c2)s1
956

----------
test summary: Pharmacokinetic evaluation following a single oral and intravenous administration
Type: in vivo, CD1 mouse
test parameters: CD1, mouse, plasma, po, 5 mg/kg, Table 5, PO Dose: 5 mg/kg, 0.5 h, Mouse 4; read-out: Concentration
Procedure: A NMP stock solution was prepared by adding 1.136 mL of NMP to 5.68 mg of compound no. 42140 with vortexing and sonification, to obtain a solution with a concentration at 5 mg/mL of 42140:01. Next, to prepare an intravenous formulation, 0.100 mL of the 5 mg/mL stock solution was placed in a new vial. 0.100 mL of NMP and 0.400 mL of PEG400 were added with vortexing and sonification, followed by addition of 0.400 mL of saline with vortexing and sonification. […] 42140:01. […]
measurement kind: concentration at 0.5 h (ng/mL)
Write the number in ng/mL without appending the unit.

Return concentration at 0.5 h for the following compound: CNCc1ccc(C[C@H](NC(C)=O)c2nnc(-c3cccc(OC(F)(F)F)c3)s2)cc1
92.2

----------
assayed system: (Homo sapiens, UniProt P07996)
Sequence (P07996 whole entry): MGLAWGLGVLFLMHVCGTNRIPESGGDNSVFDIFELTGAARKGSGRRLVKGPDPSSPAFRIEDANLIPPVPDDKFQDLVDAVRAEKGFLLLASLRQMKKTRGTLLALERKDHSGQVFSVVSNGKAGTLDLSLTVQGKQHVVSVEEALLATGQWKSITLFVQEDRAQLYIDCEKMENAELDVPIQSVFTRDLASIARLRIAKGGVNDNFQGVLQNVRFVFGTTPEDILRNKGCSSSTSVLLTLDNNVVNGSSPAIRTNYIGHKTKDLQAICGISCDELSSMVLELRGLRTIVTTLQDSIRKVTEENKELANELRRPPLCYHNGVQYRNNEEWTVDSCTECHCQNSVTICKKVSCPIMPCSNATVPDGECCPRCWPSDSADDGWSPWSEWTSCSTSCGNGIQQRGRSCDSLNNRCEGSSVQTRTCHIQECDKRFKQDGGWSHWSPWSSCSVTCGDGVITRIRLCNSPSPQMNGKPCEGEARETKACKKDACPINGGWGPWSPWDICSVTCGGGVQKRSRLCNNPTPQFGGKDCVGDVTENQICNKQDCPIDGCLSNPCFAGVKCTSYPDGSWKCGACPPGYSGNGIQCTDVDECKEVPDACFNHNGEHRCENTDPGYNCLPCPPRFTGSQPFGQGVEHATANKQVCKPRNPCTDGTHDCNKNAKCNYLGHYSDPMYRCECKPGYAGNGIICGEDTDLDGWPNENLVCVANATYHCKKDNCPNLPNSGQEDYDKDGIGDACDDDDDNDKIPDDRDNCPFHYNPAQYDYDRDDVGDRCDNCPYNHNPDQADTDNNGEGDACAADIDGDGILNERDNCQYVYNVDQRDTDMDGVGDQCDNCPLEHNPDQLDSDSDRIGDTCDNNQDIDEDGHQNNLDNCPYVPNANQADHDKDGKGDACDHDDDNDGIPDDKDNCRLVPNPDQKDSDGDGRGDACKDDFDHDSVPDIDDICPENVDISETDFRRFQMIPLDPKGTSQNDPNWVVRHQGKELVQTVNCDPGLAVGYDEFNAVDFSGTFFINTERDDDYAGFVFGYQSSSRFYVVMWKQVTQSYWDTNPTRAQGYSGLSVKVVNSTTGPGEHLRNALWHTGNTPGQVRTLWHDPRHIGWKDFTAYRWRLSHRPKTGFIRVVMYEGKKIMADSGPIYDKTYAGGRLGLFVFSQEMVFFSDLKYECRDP
test summary: Secondary Assay, inhibitory activity of thiadiazole and oxadiazole analogs as TGF-beta inhibitors
Type: biochemical
test parameters: Table I
measurement kind: IC50 (nM)
Write the number in nM without appending the unit.

// worked examples, IC50 included
NCc1cccc(CC(NC(=O)C2CC2)c2nnc(-c3cccc(OC(F)(F)F)c3)s2)c1 (stereo not drawn) [Compound 42468] ... 8
CC(=O)NC(Cc1ccc(CN)cc1)c1nnc(-c2cccc(OC(F)(F)F)c2)s1 (stereo not drawn) [Compound 40000] ... 28

Now for another entry.
Return IC50 for the following compound: NCc1cccc(CC(NC(=O)C2CCCCC2)c2nnc(-c3cccc(OC(F)(F)F)c3)s2)c1 (stereo not drawn) [Compound 42461]
5

----------
test summary: Pharmacokinetic evaluation following a single oral and intravenous administration
Type: in vivo, CD1 mouse
test parameters: CD1, mouse, plasma, po, 5 mg/kg, Table 5, PO Dose: 5 mg/kg, 4 h, mean; read-out: Concentration, Mean
measurement kind: concentration at 4 h

Return concentration at 4 h for the following compound: CNCc1ccc(C[C@H](NC(C)=O)c2nnc(-c3cccc(OC(F)(F)F)c3)s2)cc1
113 ng/mL

----------
test summary: Pharmacokinetic evaluation following a single oral and intravenous administration
Assay type: in vivo, CD1 mouse
test parameters: Table 10, IV Dose: 1 mg/kg, Mouse 1
Procedure: A NMP stock solution was prepared by adding 1.136 mL of NMP to 5.68 mg of compound no. 42140 with vortexing and sonification, to obtain a solution with a concentration at 5 mg/mL of 42140:01. Next, to prepare an intravenous formulation, 0.100 mL of the 5 mg/mL stock solution was placed in a new vial. 0.100 mL of NMP and 0.400 mL of PEG400 were added with vortexing and sonification, followed by addition of 0.400 mL of saline with vortexing and sonification. […] 42140:01. […]
measurement kind: AUClast/D (h·ng/mL per mg/kg)
Write the number in h·ng/mL per mg/kg without appending the unit.

Return AUClast/D for the following molecule: CC(=O)N[C@@H](Cc1ccc(CN(C)C)cc1)c1nnc(-c2cccc(OC(F)(F)F)c2)s1
169
